Source listed as the OligoGym collection.

# STUDY SYSTEM: IQCJ
# TEST SUMMARY: pooled miR-30 sensor sort-seq; sequence = guide strand; further: reference of the scale not given here
# EXPERIMENTAL SETUP: shRNA
Think of 0.02 as a floor: if sensor-assay potency score (higher = more potent) stands on it or above, it is yes (1); beneath it, no (0).

| QUERY SEQUENCE | ASSIGNED CATEGORY |
| --- | --- |
| ATATTTTCCATCATTAACTTGT | yes (1) |
| TTCTCTGAGGAGACAGAGGGTG | no (0) |
| TAGAGAAGAATCACCTTCCTTC | yes (1) |
| TCCATCATTAACTTGTTCTAGA | no (0) |
| TTCCATCATTAACTTGTTCTAG | no (0) |
| TTGAGAGTATGTATGAACCCAG | no (0) |

---

# STUDY SYSTEM: SLC7A13
# TEST SUMMARY: pooled miR-30 sensor sort-seq; sequence = guide strand
# EXPERIMENTAL SETUP: shRNA
Think of -0.8 as a floor: if sensor-assay potency score (higher = more potent) stands on it or above, it is satisfied; beneath it, not satisfied.

| QUERY SEQUENCE | ASSIGNED CATEGORY |
| --- | --- |
| ATATAGACCATAATGAACCCGT | satisfied |
| TAATCCGCTGAGAACTAACAGA | satisfied |
| AAATCGTTCTACATTCTCCTTT | satisfied |
| TTAATAAGCAAAAAACTTGTGC | satisfied |
| TAATTGTAAATAGCAAGTCATC | not satisfied |
| TAGTATTGAGCTCCACTGCATG | not satisfied |
| TTAACCTTGATTTGGAATCTGA | satisfied |

---

# STUDY SYSTEM: NUDT18
# TEST SUMMARY: pooled miR-30 sensor sort-seq; sequence = guide strand
# EXPERIMENTAL SETUP: shRNA
READOUT LABEL: sensor-assay potency score (higher = more potent)

| QUERY SEQUENCE | VALUE REPORTED |
| --- | --- |
| TTGCAGGTCTTCCTCCATCACC | -1.52 |
| ACTAACACCCACACTGTCTGGG | -0.0585 |
| TTGATCTCCACCACCAAGTGGT | 0.0788 |
| TGTCTCGGGCTCACAGTGCAGC | -1.13 |
| TCCTCCATCACCTTCCACCAAG | -1.79 |
| TAGTTCAACCAGGTGCAGGATG | -0.826 |

---

# STUDY SYSTEM: MAFG
# TEST SUMMARY: pooled miR-30 sensor sort-seq; sequence = guide strand
# EXPERIMENTAL SETUP: shRNA
READOUT LABEL: sensor-assay potency score (higher = more potent)

| QUERY SEQUENCE | VALUE REPORTED |
| --- | --- |
| TTTACTATTGTGATGACGCTGG | 0.761 |
| TTAGCAATAAATACTGCGCAGG | -0.418 |
| TTCTATTATACTTTCTTCCCTT | -0.191 |
| TACTATTGTGATGACGCTGGTG | 0.19 |
| TATATAAAAACTAAACTCCAAC | -1.06 |
| TATAATTAATTTAATAACTTTG | -0.864 |
| TAGATCTTTAATAACCTCCATC | -0.748 |
| TCGAGCTCCAGCTTCATGCTGG | -0.0457 |
| TTATATATCACAAACATACACT | -0.989 |
| ATAATGTCTGATAACTCTGTGT | -0.547 |
